test system: Staphylococcus aureus; assay: Antimicrobial activity against Staphylococcus aureus ATCC 25923 by microdilution method; assay type: organism-based; conditions: in vivo
Known MIC of a selection of compounds
Please give a number only; it is taken to be in µg/mL.

CCCOc1ccc(-c2cc(OCCN(CC)CC)c3cc(OC)cc(OC)c3n2)cc1: 100

The reported value for CCCOc1ccc(-c2cc(OCCN3CCCCC3)c3ccc(OC)cc3n2)cc1 in terms of MIC is 50

The reported value for CCCOc1ccc(-c2cc(OCCCN(C)C)c3ccc(OC)cc3n2)cc1 in terms of MIC is 100

The reported value for CCCOc1ccc(-c2cc(OCCN3CCNCC3)c3ccc(OC)cc3n2)cc1 in terms of MIC is 100

The reported value for CCCOc1ccc(-c2cc(OCCN3CCCCC3)c3cc(OC)cc(OC)c3n2)cc1 in terms of MIC is 100

The reported value for CCCOc1ccc(-c2cc(OCCN(CC)CC)c3c(OC)cccc3n2)cc1 in terms of MIC is 12.5

The reported value for CCCOc1ccc(-c2cc(OCCN3CCc4cc(OC)c(OC)cc4C3)c3cc(OC)cc(OC)c3n2)cc1 in terms of MIC is 25

The reported value for CCCOc1ccc(-c2cc(OCCN3CCCCC3)c3cc(OC)ccc3n2)cc1 in terms of MIC is 50

The reported value for CCCOc1ccc(-c2cc(OCCN3CCCCC3)c3cc(OC)c(OC)cc3n2)cc1 in terms of MIC is 100

* * *

biological target: Quinolone resistance protein NorA (Staphylococcus aureus, UniProt P0A0J7, A116E); assay: Inhibition of NorA in Staphylococcus aureus SA-1199B expressing GrlA A116E mutant assessed as reduction in EtBr efflux incubated for 5 mins by fluorescence based assay
Known pIC50 of a selection of compounds
The quantity pIC50 is defined as the negative base-10 logarithm of the molar concentration.

The reported value for CCCOc1ccc(-c2cc(OCCN3CCNCC3)c3cccc(OC)c3n2)cc1 in terms of pIC50 is 5.00

The reported value for CCCOc1ccc(-c2cc(O)c3c(OC)cccc3n2)cc1 in terms of pIC50 is 5.39

The reported value for CCCOc1ccc(-c2cc(OCCN3CCCCC3)c3cc(OC)ccc3n2)cc1 in terms of pIC50 is 5.38

The reported value for CCCOc1ccc(-c2cc(OCCN3CCc4cc(OC)c(OC)cc4C3)c3ccc(OC)cc3n2)cc1 in terms of pIC50 is 5.33

The reported value for CCCOc1ccc(-c2cc(OCCCN(C)C)c3ccc(OC)cc3n2)cc1 in terms of pIC50 is 5.37

The reported value for CCCOc1ccc(-c2cc(OCCN3CCc4cc(OC)c(OC)cc4C3)c3c(OC)cc(OC)cc3n2)cc1 in terms of pIC50 is 5.80

The reported value for CCCOc1ccc(-c2cc(OCCN(CC)CC)c3c(OC)cccc3n2)cc1 in terms of pIC50 is 5.03

The reported value for CCCOc1ccc(-c2cc(OCCN3CCCCCC3)c3cc(OC)cc(OC)c3n2)cc1 in terms of pIC50 is 5.74

The reported value for CCCOc1ccc(-c2cc(OCCN(CC)CC)c3cc(OC)ccc3n2)cc1 in terms of pIC50 is 5.33

The reported measurements were obtained from ChEMBL document CHEMBL4145675.
